TARGET OF ASSAY: Recombinant EGFR (Homo sapiens)
TEST DESCRIPTION: EGFR binding affinity (LanthaScreen TR-FRET)
RECORDED CONDITIONS: Kinase Tracer 199, 5 h incubation
pIC50: −log10 of the molar value.
Reported pIC50 values for a set of compounds

Illustrative cases are given below, each with its answer.
>>> df
                                   compound  measured_property     obs_value
0  COc1ccccc1C(=O)NCc1ccc(-c2nn(C3CCCC3)c(Cl)c2C(N)=O)cc1 [Example 78]              pIC50        < 5.00
1  CCNc1c(C(N)=O)c(-c2ccc(CNC(=O)c3ccccc3OC)cc2)nn1C1CCCC1 [Example 73]              pIC50  6.00 to 7.00
2  COc1ccccc1C(=O)NCc1ccc(-c2nn(C3CCOCC3(C)C)c(N)c2C(N)=O)cc1 (stereo not shown) [Example 89]              pIC50  5.00 to 6.00

Read the next record carefully.
Exercise: Which value of pIC50 has been reported for COc1ccccc1C(=O)NCc1cc(F)c(-c2nn(C3CCOC3)c(N)c2C(N)=O)cc1F (stereo not shown) [Example 152] in the records?
Key: < 5.00

* * *

TARGET OF ASSAY: Recombinant EGFR (Homo sapiens, UniProt P00533)
Sequence (P00533 25-1210): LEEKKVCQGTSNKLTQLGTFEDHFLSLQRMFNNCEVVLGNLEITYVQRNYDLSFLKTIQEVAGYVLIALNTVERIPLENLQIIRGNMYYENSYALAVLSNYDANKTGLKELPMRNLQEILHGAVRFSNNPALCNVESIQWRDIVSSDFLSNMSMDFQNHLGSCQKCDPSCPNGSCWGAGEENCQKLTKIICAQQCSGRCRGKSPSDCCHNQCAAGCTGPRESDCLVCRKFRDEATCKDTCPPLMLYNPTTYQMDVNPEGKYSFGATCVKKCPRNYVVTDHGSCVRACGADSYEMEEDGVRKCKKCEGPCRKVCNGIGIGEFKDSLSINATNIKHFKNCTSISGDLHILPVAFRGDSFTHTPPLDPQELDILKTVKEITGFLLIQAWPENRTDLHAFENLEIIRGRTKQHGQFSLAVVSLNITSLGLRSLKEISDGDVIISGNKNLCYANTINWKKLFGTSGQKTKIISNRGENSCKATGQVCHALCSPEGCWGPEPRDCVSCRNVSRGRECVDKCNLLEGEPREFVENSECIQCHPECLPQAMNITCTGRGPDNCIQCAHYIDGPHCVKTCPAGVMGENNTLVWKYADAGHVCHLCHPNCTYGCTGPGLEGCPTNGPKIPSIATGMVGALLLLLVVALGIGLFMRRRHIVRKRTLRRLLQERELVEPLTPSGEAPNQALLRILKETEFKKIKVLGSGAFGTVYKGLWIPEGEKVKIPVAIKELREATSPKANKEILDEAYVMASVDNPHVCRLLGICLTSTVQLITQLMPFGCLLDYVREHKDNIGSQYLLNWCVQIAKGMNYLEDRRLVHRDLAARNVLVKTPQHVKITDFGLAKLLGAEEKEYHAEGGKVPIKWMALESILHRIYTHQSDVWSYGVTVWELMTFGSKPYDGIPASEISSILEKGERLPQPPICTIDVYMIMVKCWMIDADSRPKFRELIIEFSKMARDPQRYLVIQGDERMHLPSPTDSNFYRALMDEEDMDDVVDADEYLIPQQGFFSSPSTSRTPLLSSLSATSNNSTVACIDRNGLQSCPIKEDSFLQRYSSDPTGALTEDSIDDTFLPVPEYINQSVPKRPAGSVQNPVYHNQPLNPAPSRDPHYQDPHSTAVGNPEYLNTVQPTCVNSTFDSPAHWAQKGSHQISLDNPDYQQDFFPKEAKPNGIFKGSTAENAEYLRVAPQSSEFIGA
TEST DESCRIPTION: EGFR binding affinity (LanthaScreen TR-FRET)
RECORDED CONDITIONS: Kinase Tracer 199, 5 h incubation
pIC50: −log10 of the molar value.
MEASURED PROPERTY: pIC50

                                   compound     obs_value
0  COc1ccccc1C(=O)NC(C)c1ccc(-c2nn(C3CCCC3)c(N)c2C(N)=O)cc1 (centres unmarked)  5.00 to 6.00
1  COC(=O)c1ccc(-n2nc(-c3ccc(CNC(=O)c4ccccc4OC)cc3)c(C(N)=O)c2N)cc1  5.00 to 6.00
2  COc1ccc(F)cc1C(=O)NCc1ccc(-c2nn(C3CCCC3)c(N)c2C(N)=O)c(F)c1F        < 5.00
3  COc1ccccc1C(=O)NCc1ccc(-c2nn([C@@H]3COC[C@H]3O)c(N)c2C(N)=O)cc1 (relative stereo)  5.00 to 6.00
4  COc1ccccc1C(=O)NCc1ccc(-c2nn(C3CCOCC3C)c(N)c2C(N)=O)cc1 (mixture of isomers)  6.00 to 7.00

Exercise: Which value of pIC50 has been reported for COc1ccccc1C(=O)NCc1ccc(-c2nn(CC(F)(F)F)c(N)c2C(N)=O)c(F)c1 in the records?
Key: 5.00 to 6.00

Exercise: Let us now turn to COc1ccc(F)cc1C(=O)NCc1ccc(-c2nn(C3CNCC3(F)F)c(N)c2C(N)=O)cc1 (centres unmarked)
Key: 5.00 to 6.00

Exercise: Let us now turn to COc1ccccc1C(=O)NCc1ccc(-c2nn([C@H]3CC[C@@H](O)C3)c(N)c2C(N)=O)cc1 (relative stereo)
Key: 6.00 to 7.00

* * *

TARGET OF ASSAY: Recombinant BTK^WT kinase (Homo sapiens)
Sequence (Q06187 whole entry): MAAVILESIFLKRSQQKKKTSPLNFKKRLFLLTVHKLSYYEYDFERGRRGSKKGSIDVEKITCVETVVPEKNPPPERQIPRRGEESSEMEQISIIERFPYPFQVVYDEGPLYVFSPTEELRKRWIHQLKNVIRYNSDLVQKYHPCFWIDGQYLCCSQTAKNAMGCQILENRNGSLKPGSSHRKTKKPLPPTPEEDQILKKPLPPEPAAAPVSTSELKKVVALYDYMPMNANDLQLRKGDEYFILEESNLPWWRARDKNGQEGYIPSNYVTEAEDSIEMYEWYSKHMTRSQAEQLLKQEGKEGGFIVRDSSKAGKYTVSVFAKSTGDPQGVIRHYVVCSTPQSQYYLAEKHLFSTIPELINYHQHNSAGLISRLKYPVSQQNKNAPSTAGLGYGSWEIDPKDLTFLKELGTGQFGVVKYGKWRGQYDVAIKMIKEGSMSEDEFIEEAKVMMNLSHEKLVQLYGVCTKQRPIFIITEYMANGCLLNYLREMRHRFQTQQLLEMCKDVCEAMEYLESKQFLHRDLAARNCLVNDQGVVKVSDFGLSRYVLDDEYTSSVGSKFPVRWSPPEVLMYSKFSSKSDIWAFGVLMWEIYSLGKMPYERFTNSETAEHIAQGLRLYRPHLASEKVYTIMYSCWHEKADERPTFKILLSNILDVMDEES
TEST DESCRIPTION: BTK WT binding affinity (LanthaScreen TR-FRET)
RECORDED CONDITIONS: Kinase Tracer 236, 5 h incubation
pIC50: −log10 of the molar value.
MEASURED PROPERTY: pIC50

Illustrative cases are given below, each with its answer.
>>> print(df.to_string())
                                   compound  measured_property     obs_value
0  COc1ccccc1C(=O)NCc1ccc(-c2nn(C3CCOC(C(F)(F)F)C3)c(N)c2C(N)=O)cc1 (stereo not drawn)              pIC50        > 8.00
1  COc1ccccc1C(=O)NCc1ccc(-c2nn(CC(F)(F)F)c(N)c2C(N)=O)cc1              pIC50        > 8.00
2  COc1ccccc1C(=O)NCc1ccc(-c2nn(CC(F)(F)F)c(N)c2C(N)=O)c(F)c1              pIC50  7.00 to 8.00
3  COc1ccccc1C(=O)NCc1ccc(-c2nn(C(C(C)C)C(F)(F)F)c(N)c2C(N)=O)cc1 (stereo not drawn)              pIC50  7.00 to 8.00

Exercise: Which value of pIC50 has been reported for COc1ccc(F)cc1C(=O)NCc1ccc(-c2nn(C3CCOCC3)c(N)c2C(N)=O)cc1F in the records?
Key: > 8.00

* * *

Reported pIC50 values for a set of molecules
TARGET OF ASSAY: Recombinant BTK^C481S kinase (Homo sapiens, UniProt Q06187, C481S)
Sequence (Q06187 whole entry C481S): as the sequence (Q06187 whole entry) above, with C481S counted along it
TEST DESCRIPTION: BTK C481S binding affinity (LanthaScreen TR-FRET)
RECORDED CONDITIONS: Kinase Tracer 236, 5 h incubation
pIC50: −log10 of the molar value.

Illustrative cases are given below, each with its answer.
In [3]: df
Out[3]:
                                   molecule                           target_of_assay     obs_value
0  COc1ccccc1C(=O)NCc1ccc(-c2nn(CC(O)C(C)(C)C)c(N)c2C(N)=O)cc1 (stereo not drawn) [Example 14]  Recombinant BTK^C481S kinase (Homo sapiens, UniProt Q06187, C481S)  7.00 to 8.00
1  COc1ccc(F)cc1C(=O)NCc1cc(F)c(-c2nn(C3CCOC3)c(N)c2C(N)=O)cc1F (stereo not drawn) [Example 153]  Recombinant BTK^C481S kinase (Homo sapiens, UniProt Q06187, C481S)        > 8.00
2  COc1ccccc1C(=O)NCc1ccc(-c2nn(C3C[C@@H]4C[C@@H]4C3)c(N)c2C(N)=O)cc1 (stereo partly drawn) [Example 4]  Recombinant BTK^C481S kinase (Homo sapiens, UniProt Q06187, C481S)        > 8.00
3  COc1ccccc1C(=O)NCc1ccc(-c2nn(C3CCOC3)c(N)c2C(N)=O)c(F)c1 (stereo not drawn) [Example 100]  Recombinant BTK^C481S kinase (Homo sapiens, UniProt Q06187, C481S)        > 8.00

Read the next record carefully.
Exercise: Which value of pIC50 has been reported for COc1ccccc1C(=O)NCc1ccc(-c2nn(C3CCCC3)c(C)c2C(N)=O)cc1 [Example 24] in the records?
Key: 7.00 to 8.00

* * *

TARGET OF ASSAY: Recombinant EGFR (Homo sapiens, UniProt P00533)
TEST DESCRIPTION: EGFR binding affinity (LanthaScreen TR-FRET)
RECORDED CONDITIONS: Kinase Tracer 199, 5 h incubation
pIC50: −log10 of the molar value.
MEASURED PROPERTY: pIC50

Exercise: Which value of pIC50 has been reported for COc1ccccc1C(=O)NC(CO)c1ccc(-c2nn(C3CCCC3)c(N)c2C(N)=O)cc1C (stereo not drawn) in the records?
Key: 5.00 to 6.00

* * *

TARGET OF ASSAY: Recombinant BTK^WT kinase (Homo sapiens)
TEST DESCRIPTION: BTK WT binding affinity (LanthaScreen TR-FRET)
RECORDED CONDITIONS: Kinase Tracer 236, 5 h incubation
Reported IC50 values for a set of molecules

                                   molecule       obs_value
0  COc1ccccc1C(=O)NCc1ccc(-c2nn(C3CCC(C(=O)N(C)C)CC3)c(N)c2C(N)=O)cc1 (single isomer, unassigned) [Example 57b]         < 10 nM
1  COC(=O)c1ccc(-n2nc(-c3ccc(CNC(=O)c4ccccc4OC)cc3)c(C(N)=O)c2N)cc1         < 10 nM
2  COc1ccccc1C(=O)NCc1ccc(-c2nn(C3CCCC3)c(Nc3ccccc3)c2C(N)=O)cc1  100 to 1000 nM
3  COc1ccc(F)cc1C(=O)NCc1ccc(-c2nn([C@@H]3CCOC3)c(N)c2C(N)=O)cc1         < 10 nM
4  COc1ccccc1C(=O)NCc1ccc(-c2nn(C3CCC(C)(O)CC3)c(N)c2C(N)=O)cc1 (single isomer, unassigned) [Example 27]         < 10 nM
5  CCN1CC(n2nc(-c3ccc(CNC(=O)c4cc(F)ccc4OC)cc3)c(C(N)=O)c2N)C(F)(F)C1 (stereo not shown)         < 10 nM

Exercise: Which value of IC50 has been reported for COc1ccc(F)cc1C(=O)NCc1c(F)cc(-c2nn(C3CCOCC3)c(N)c2C(N)=O)cc1F in the records?
Key: 100 to 1000 nM

Exercise: Let us now turn to CNc1c(C(N)=O)c(-c2ccc(CNC(=O)c3ccccc3OC)cc2)nn1C1CCOCC1
Key: 10 to 100 nM

Exercise: Let us now turn to COc1ccccc1C(=O)NCc1ccc(-c2nn(-c3cccnc3)c(N)c2C(N)=O)cc1
Key: < 10 nM

Exercise: Let us now turn to COc1ccccc1C(=O)NCc1ccc(-c2nn(C3CCC(F)(F)CC3)c(N)c2C(N)=O)cc1
Key: < 10 nM

Exercise: Let us now turn to COc1ccccc1C(=O)NCc1ccc(-c2nn(C3CCC4(CC3)COC4)c(N)c2C(N)=O)cc1
Key: < 10 nM

Exercise: Let us now turn to COc1ccccc1C(=O)NCc1ccc(-c2nn(C3CCCOC3)c(N)c2C(N)=O)cc1 (stereo not shown)
Key: < 10 nM

Exercise: Let us now turn to COc1ccccc1C(=O)NCc1ccc(-c2nn(-c3ccc(F)cc3)c(N)c2C(N)=O)cc1
Key: < 10 nM

Exercise: Let us now turn to COc1ccc(F)cc1C(=O)NCc1ccc(-c2nn(C(C3CCCCC3)C(F)(F)F)c(N)c2C(N)=O)cc1 (stereo not shown)
Key: 10 to 100 nM

Exercise: Let us now turn to COc1ccccc1C(=O)NCc1ccc(-c2nn([C@H]3CCOC3)c(N)c2C(N)=O)cc1 [Example 83a]
Key: < 10 nM

Exercise: Let us now turn to COc1ccc(F)cc1C(=O)NCc1ccc(-c2nn(C(C)C(F)(F)F)c(N)c2C(N)=O)c(F)c1 (stereo not shown)
Key: < 10 nM

Exercise: Let us now turn to COc1ccccc1C(=O)NCc1ccc(-c2nn(C(C)C)c(N)c2C(N)=O)cc1
Key: < 10 nM

Exercise: Let us now turn to COc1ccccc1C(=O)NCc1ccc(-c2nn(C3COC(C)(C)C3)c(N)c2C(N)=O)cc1 (stereo not shown)
Key: < 10 nM

Exercise: Let us now turn to COc1ccccc1C(=O)NCc1ccc(-c2nn(C3CCOC3C)c(N)c2C(N)=O)cc1 (single isomer, unassigned) [Example 84]
Key: 10 to 100 nM
